Source listed as patent US10689395B2.

# measured_target: BRD4-BD1 (Homo sapiens (Human), UniProt O60885)
# assay_protocol: BRD4 AlphaLISA (Perkin Elmer)
# condition_label: 5 nM BRD4-BD1, 12 nM biotinylated substrate, read-out: BRD4_BD1 IC50_μM
pIC50: −log10 of the molar value.
endpoint_name: pIC50

[
  {
    "molecule": "CCOC(=O)CC1N=C(c2ccc(Cl)cc2)c2nc(C)sc2-c2cn(C)c(=O)cc21 (racemic)",
    "pIC50": 6.85
  },
  {
    "molecule": "CCOC(=O)CC1N=C(c2ccc(Cl)cc2)c2c(cnn2C)-c2cn(C)c(=O)cc21 (racemic)",
    "pIC50": 8.00
  },
  {
    "molecule": "Cc1sc2c(c1C)C(c1ccc(Cl)cc1)OC(CCO)c1cc(=O)n(C)cc1-2 (racemic)",
    "pIC50": 7.77
  },
  {
    "molecule": "CCNC(=O)CC1N=C(c2ccc(Cl)cc2)c2cc(OC)ncc2-c2cn(C)c(=O)cc21 (racemic)",
    "pIC50": 8.70
  },
  {
    "molecule": "Cc1sc2c(c1C)C(c1ccc(Cl)cc1)=NC(CC(N)=O)c1cc(=O)n(C)cc1-2 (racemic)",
    "pIC50": 8.70
  }
]

(1) Cc1sc2c(c1C)C(c1ccc(Cl)cc1)OC(CC(N)=O)c1cc(=O)n(C)cc1-2 (racemic)
(2) CCNC(=O)CC1N=C(c2ccc(Cl)cc2)c2nc(C)sc2-c2cn(C)c(=O)cc21 (racemic)
// pick min by pIC50: 1 , 2 State the label of the item chosen.
1

(I) CCNC(=O)CC1N=C(c2ccc(Cl)cc2)c2c(sc(C)c2C)-c2cn(C)c(=O)cc21 (racemic)
(II) CCNC(=O)CC1N=C(CC2CC2)c2c(sc(C)c2C)-c2cn(C)c(=O)cc21 (racemic)
(III) CCNC(=O)CC1OC(c2ccc(Cl)cc2)c2c(cnn2C)-c2cn(C)c(=O)cc21 (racemic)
(IV) CCNC(=O)C[C@@H]1N=C(c2ccc(Cl)cc2)c2c(cnn2C)-c2cn(C)c(=O)cc21
Reorder the items by pIC50, least to greatest. Returns: the labels arranged in the requested order.
II, IV, I, III
(II: 8.00, IV: 8.30, I: 8.66, III: 9.00)

(a) CCNC(=O)CC1OC(c2ccc(Cl)cc2)c2c(sc(C)c2C)-c2cn(C)c(=O)cc21 (racemic)
(b) Cc1sc2c(c1C)C(c1ccc(Cl)cc1)=NC(CC(=O)Nc1ccc(O)cc1)c1cc(=O)n(C)cc1-2 (racemic)
// pick min by pIC50: a , b State the label of the item chosen.
b
